- Tested on: Saccharomyces cerevisiae
- assay_info: Relative antifungal activity (against Saccharomyces cerevisiae) compared to AbA
value_type: antifungal AbA/analogue ratio

antifungal AbA/analogue ratio reading for `CC[C@H](C)[C@@H]1NC(=O)[C@@H]2CCCN2C(=O)[C@@H](C)N(C)C(=O)[C@H](CO)NC(=O)[C@H](C(C)C)N(C)C(=O)[C@@H]([C@@H](C)CC)OC(=O)[C@H](C(C)(C)O)N(C)C(=O)[C@H](CC(C)C)NC(=O)[C@H](C(C)C)N(C)C1=O` : < 0.016

antifungal AbA/analogue ratio reading for CC[C@@H](C)[C@@H]1NC(=O)[C@@H]2CCCN2C(=O)[C@H](Cc2ccccc2)N(C)C(=O)[C@H](Cc2ccccc2)NC(=O)[C@H](C(C)C)N(C)C(=O)[C@@H]([C@@H](C)CC)OC(=O)[C@H](C(C)(C)O)N(C)C(=O)[C@H](CC(C)C)NC(=O)C(C(C)C)OC1=O (some centres not stated) : < 0.016
